system: MIA PaCa-2; assay: Cytotoxicity against human MIA PaCa-2 cells assessed as inhibition of cell growth incubated for 7 days in glucose-containing medium by MTT assay; type: functional, cell-based; details: MIA PaCa-2, 168 h
Entries whose IC50 is below 300 nM take condition met; entries at or above 300 nM take condition not met.

Dear colleague, could you confirm whether IC50 of `CCN(CC)S(=O)(=O)c1ccc(S(=O)(=O)N2CCC[C@@H](C(=O)NC3CN(C(=O)OC(C)(C)C)C3)C2)cc1` falls below 300 nM? Thanks.
condition met

Dear colleague, could you confirm whether IC50 of `CCN(CC)C(=O)c1ccc(S(=O)(=O)N2CCC[C@@H](C(=O)N3CCN(c4nc(C(C)C)no4)CC3)C2)cc1` falls below 300 nM? Thanks.
condition met

Dear colleague, could you confirm whether IC50 of `CCN(CC)S(=O)(=O)c1ccc(S(=O)(=O)N2CCC[C@@H](C(=O)N3CCN(c4nc(C(F)(F)F)no4)CC3)C2)cc1` falls below 300 nM? Thanks.
condition not met

Dear colleague, could you confirm whether IC50 of CCOC(=O)[C@@H]1CCC[C@@H](S(=O)(=O)c2ccc(S(=O)(=O)N(CC)CC)cc2)C1 (relative stereo) falls below 300 nM? Thanks.
condition not met

Dear colleague, could you confirm whether IC50 of `CCN(CC)S(=O)(=O)c1ccc(S(=O)(=O)N2CCC[C@@H](C(=O)N3CC4(CN(C(=O)OC(C)(C)C)C4)C3)C2)cc1` falls below 300 nM? Thanks.
condition not met

Dear colleague, could you confirm whether IC50 of `CC(C)NS(=O)(=O)c1ccc(S(=O)(=O)N2CCC[C@@H](C(=O)N3CCN(c4nc(C(C)C)no4)CC3)C2)cc1` falls below 300 nM? Thanks.
condition not met
